- Tested on: Human immunodeficiency virus 1
- assay protocol: Reactivation of latent HIV1 NL4-3-Luc expression in human naive CD4+ T cells treated 7 days post-infection measured after 48 hrs by luminescence plate reader analysis relative to SAHA-treated control
- Format: functional, T-cell
- Set-up: concentration or dose not given beside the values
Listing: Activity of selected compounds

{"compound": "C[C@H]1C[C@H]2O[C@@H]2C[C@H](O)/C=C/C(=O)Cc2c(Cl)c(O)cc(O)c2C(=O)O1 [POCHONIN B]", "Activity": "98%"}
{"compound": "O=C(NCCSSCCNC(=O)/C(Cc1ccc(O)c(Br)c1)=N/O)/C(Cc1ccc(O)c(Br)c1)=N/O [PSAMMAPLIN A]", "Activity": "100%"}
{"compound": "C[C@@H]1C[C@H]2O[C@@H]2/C=C\\C=C\\C(=O)Cc2c(Cl)c(O)cc(O)c2C(=O)O1 [RADICICOL]", "Activity": "98%"}
{"compound": "CCC(=O)CCCCC[C@@H]1NC(=O)[C@H]2CCCCN2C(=O)[C@H]([C@@H](C)CC)NC(=O)[C@H](Cc2cn(OC)c3ccccc23)NC1=O [APICIDIN]", "Activity": "100%"}
{"compound": "C[C@H]1C[C@H](O)C(Cl)/C=C\\C=C\\C(=O)Cc2c(Cl)c(O)cc(O)c2C(=O)O1 (stereo partly specified) [POCHONIN C]", "Activity": "92%"}
{"compound": "C[C@@H]1C[C@@H](O)[C@@H](O)/C=C\\C=C\\C(=O)Cc2c(Cl)c(O)cc(O)c2C(=O)O1", "Activity": "25%"}
